src = ChEMBL document CHEMBL1122675

Experiment: Compound was tested for Octanol / pH 7.2 phosphate buffer distribution coefficient (N=2-3)
Assay type: physicochemical
Outcome label depends on logD relative to 2: at/above gives satisfied, below gives not satisfied.

Would you say CCOc1ccc2nc(S(=O)(=O)NC)sc2c1 shows logD at minimum 2?
satisfied

Please check the record NS(=O)(=O)c1nc2ccccc2s1 and state if its logD is at or above 2.
not satisfied

Is the recorded value of logD equal to or greater than 2 for this compound? CCOc1ccc2nc(S(=O)(=O)NC(C)=O)sc2c1
not satisfied

Is the recorded value of logD equal to or greater than 2 for this compound? CCOc1ccc2nc(S(N)(=O)=O)sc2c1 [ETHOXZOLAMIDE]
satisfied

Dear colleague, could you confirm whether NS(=O)(=O)c1nc2ccc(O)cc2s1 has logD at or above 2?
not satisfied

Quick check: does NS(=O)(=O)c1nc2ccc(Cl)cc2s1 have logD greater than or equal to 2?
satisfied

###

Assay: Solubility at a pH 7.2 phosphate buffer, 37 degrees celsius (N=6)
Type: physicochemical
Conditions: phosphate buffer, read-out: Solubility
Assay Metric: solubility (mg/mL)
Lab book: enter the figure in mg/mL, no units written.

Quick note, solubility for CCOc1ccc2nc(S(N)(=O)=O)sc2c1 [ETHOXZOLAMIDE] landed at 0.06

Please fill in: solubility reported for NS(=O)(=O)c1nc2ccc(Cl)cc2s1 = 0.607

Memo: CCOc1ccc2nc(S(=O)(=O)NC(C)=O)sc2c1 , reported solubility: 11.5

The reported solubility of the compound CCOc1ccc2nc(S(=O)(=O)NC)sc2c1 was 0.064

###

Assay: Acid dissociation constant was determined.
Format: ADME
Settings: read-out: pKa
Give pKa for every item shown.
The response must contain the number and no unit.

Sample CCOc1ccc2nc(S(=O)(=O)NC)sc2c1 ; pKa observed: 9.1

CCOc1ccc2nc(S(=O)(=O)NC(C)=O)sc2c1 yielded pKa of 2.95

Entry NS(=O)(=O)c1nc2ccc(O)cc2s1 ; pKa = 7.81

For record NS(=O)(=O)c1nc2ccc(Cl)cc2s1 the listed pKa is 7.72

pKa reading for NS(=O)(=O)c1nc2ccccc2s1 : 7.9
